# maps each entry to its IC50
Target: GSK3β (Homo sapiens, UniProt P49841)
Sequence (P49841 whole entry, species assumed): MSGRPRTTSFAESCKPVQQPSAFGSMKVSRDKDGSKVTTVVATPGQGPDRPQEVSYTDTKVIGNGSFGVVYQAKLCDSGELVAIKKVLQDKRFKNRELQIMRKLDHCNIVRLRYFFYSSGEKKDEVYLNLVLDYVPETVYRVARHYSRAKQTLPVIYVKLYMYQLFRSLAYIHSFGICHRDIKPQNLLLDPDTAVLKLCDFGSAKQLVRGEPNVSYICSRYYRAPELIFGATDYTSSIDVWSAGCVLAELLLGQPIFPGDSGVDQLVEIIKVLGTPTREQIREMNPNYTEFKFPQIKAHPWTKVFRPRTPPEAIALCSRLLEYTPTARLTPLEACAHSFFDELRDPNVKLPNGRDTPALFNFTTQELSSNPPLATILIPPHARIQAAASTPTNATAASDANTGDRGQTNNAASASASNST
Test: GSK3β kinase assay (Caliper LabChip3000, fluoresceinated peptide substrate)
Assay type: biochemical
Details: first value of cell; 250 pM enzyme, 20 uM ATP, 20 hours room temperature; read-out: GSK3β/α (nM): GSK3β IC50
Kindly answer with a numeric value in nM, unit omitted.

Reference set, count: 3
molecule	unit_descriptor	IC50
CC1(O)CCCCCOc2ccncc2NC(=O)c2ccnc(n2)NC1 (stereo not shown) [Example 42]	nM	1.4
O=C1Nc2cnccc2OCCC=CCCNc2nccc1n2 (mixture of isomers) [Example 8]	nM	8.1
O=C1Nc2cnc(F)cc2N2CCN(C/C=C\CC3(CC3)CNc3nccc1n3)CC2 [Example 44]	nM	12.5

QUERY: Look up IC50: CC1(O)CC=CCCOc2ccncc2NC(=O)c2ccnc(n2)NC1 (mixture of isomers) [Example 41]
RESULT: 2.7

The measurements presented in this section are drawn from patent US11053258B2.
